- assay text: qHTS RealTime-Glo MT Cell Viability Assay in HepG2 cells - 8 hour (AID 1224873); note: % is set by controls: 0 for no effect and ±100 for the full control effect; nearly all actives have a fitted effect of over 55% in size
- test settings: RealTime-Glo luminescence; series mostly up to 76.8 µM
- Excerpt: National Center for Advancing Translational Sciences [NCATS] NIH Chemical Genomics Center [NCGC] U.S. Environmental Protection Agency [EPA] National Institutes of Environmental Health Sciences [NIEHS] National Toxicology Program [NTP] U.S. Food and Drug Administration [FDA] Measure of cell viability is critical in the cell-base assay. Analysis of cell viability is necessary for the characterization of cell responses to cytotoxic drugs and environmental stress. […]
Inconclusive results are not listed. The source made the active and inactive calls. Calls come from the whole dose curve; as a rule, active = well fitted cell-killing curve with a large enough effect in the repeat runs; inconclusive = weak or mixed curves; inactive = flat fitted curve, though single readings scatter.
measured metric: viability change, negative = cytotoxic

The following molecules have reported results that may help.
ClCC1CO1 (configuration not stated) | inactive
CCOC(=O)c1ncn2c1CN(C)C(=O)c1c(I)cccc1-2 | inactive
N[C@@H](Cc1ccc(Oc2cc(I)c(O)c(I)c2)c(I)c1)C(=O)O | inactive
CC(C)(C1CCC(O)CC1)C1CCC(O)CC1 (configuration not stated) | inactive
Clc1ccc(C(Cl)(Cl)Cl)cn1 | inactive

The molecule identified as COP(=O)(OC)O/C(C)=C/C(=O)N(C)C registered its viability change, negative = cytotoxic at inactive

The molecule identified as CON(C)C(=O)Nc1ccc(Br)cc1 registered its viability change, negative = cytotoxic at inactive

The molecule identified as O=C(CCl)NCO registered its viability change, negative = cytotoxic at inactive

The molecule identified as CC1NCCOC1c1ccccc1 (configuration not stated) registered its viability change, negative = cytotoxic at inactive

The molecule identified as ClC(Cl)(Cl)Cl registered its viability change, negative = cytotoxic at inactive

The molecule identified as CCC1(c2cccc(O)c2)CCCCN(C)C1 (configuration not stated) registered its viability change, negative = cytotoxic at inactive

The molecule identified as C=CCCC#N registered its viability change, negative = cytotoxic at inactive

The molecule identified as O=c1[nH]c2ccccc2n1C1CCNCC1 registered its viability change, negative = cytotoxic at inactive

The molecule identified as CN(C)CCc1c[nH]c2cccc(OP(=O)(O)O)c12 registered its viability change, negative = cytotoxic at inactive

The molecule identified as NCC1(CC(=O)O)CCCCC1 registered its viability change, negative = cytotoxic at inactive

The molecule identified as ClC1=C(Cl)C2(Cl)C(CBr)CC1(Cl)C2(Cl)Cl (configuration not stated) registered its viability change, negative = cytotoxic at inactive

The molecule identified as Cc1cccc2sc3nncn3c12 registered its viability change, negative = cytotoxic at inactive

The molecule identified as NNCc1ccccc1 registered its viability change, negative = cytotoxic at inactive

The molecule identified as COc1cccc([C@@]2(O)CCCC[C@@H]2CN(C)C)c1 registered its viability change, negative = cytotoxic at inactive

The molecule identified as CCN(CCO)CCn1c(Cc2ccccc2)nc2c1c(=O)n(C)c(=O)n2C registered its viability change, negative = cytotoxic at inactive

The molecule identified as N#CN registered its viability change, negative = cytotoxic at inactive

The molecule identified as CCOC(=O)NC(C)(C)Cc1ccc(Cl)cc1 registered its viability change, negative = cytotoxic at inactive

The molecule identified as CCC1(CC)C(=O)C=CNC1=O registered its viability change, negative = cytotoxic at inactive

---

- assay text: qHTS assay for small molecule disruptors of the mitochondrial membrane potential (AID 720635); note: % is set by controls: 0 for no effect and ±100 for the full control effect
- test settings: HepG2 mitochondrial membrane potential, Mito-MPS dye ratio; series mostly up to 83.2 µM
Inconclusive results are not listed. Active and inactive are the calls of the source. Calls follow the shape of the dose curve; as a rule, active = well fitted inhibition curve with a large enough effect in the signal ratio in the repeat runs; inconclusive = weak or mixed curves, or effect the other way; inactive = flat fitted curve, though single readings scatter; the % refers to the signal ratio.
Choose the fitting class; nothing outside active, inactive is accepted.

Solved cases below.
CC(C)NCC(O)c1ccc([N+](=O)[O-])cc1 (centres undefined) | inactive
CCC(=O)OC1(c2ccccc2)CCN(C)CC1 | inactive
Cc1cc(OC(=O)N(C)C)nn1C(=O)N(C)C | inactive

Request: Give the logged outcome of this assay for the following compound: COc1ccc2c(C(=O)c3ccc(Cl)cc3)c(C)n(CC(=O)O)c2c1
Response: inactive

Request: Give the logged outcome of this assay for the following compound: CCCCCCC1CCOC1=O (centres undefined)
Response: inactive

Request: Give the logged outcome of this assay for the following compound: Cn1c(CCCC(=O)O)nc2cc(N(CCCl)CCCl)ccc21
Response: inactive

Request: Give the logged outcome of this assay for the following compound: CCC1(c2ccccc2)C(=O)N(COC)C(=O)N(COC)C1=O
Response: inactive

Request: Give the logged outcome of this assay for the following compound: O=C(Cl)OCc1ccccc1
Response: inactive

---

- assay text: qHTS assay to identify small molecule antagonists of the estrogen receptor alpha (ER-alpha) signaling pathway - cell viability counter screen (AID 743074);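 note: HEK293 cells carrying ER-alpha-UAS-bla reporter stimulated with 17beta-estradiol; % is set by controls: 0 for no effect and ±100 for the full control effect; nearly all actives have a fitted effect of over 45% in size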
- test settings: ERalpha-bla HEK293 viability, CellTiter-Glo luminescence, 18 h; series mostly up to 69.4 µM
Results filed as inconclusive are left out. The source made the active and inactive calls. The call rests on the fitted dose curve.
measured metric: activity, negative = cytotoxicity

The following molecules have reported results that may help.
BrCCc1ccccc1 | inactive
COc1cccc([C@@]2(O)CCCC[C@@H]2CN(C)C)c1 | inactive
COc1cccc(C=O)c1 | inactive
C=C(Cl)CCl | inactive
CN(C)C(=O)Oc1cc(OC(=O)N(C)C)cc(C(O)CNC(C)(C)C)c1 (stereo not given) | inactive
O=C(Cl)CCl | inactive
Clc1ccc(C(Cl)(Cl)Cl)cn1 | inactive
CC(C)[N+](C)(CCC(C(N)=O)(c1ccccc1)c1ccccc1)C(C)C | inactive

The molecule identified as ClCCCCl registered its activity, negative = cytotoxicity at inactive

The molecule identified as Cn1c(N)nc2c3cccnc3ccc21 registered its activity, negative = cytotoxicity at inactive

---

- assay system: Estrogen receptor (Homo sapiens)
- assay text: qHTS assay to identify small molecule agonists of the estrogen receptor alpha (ER-alpha) signaling pathway using the BG1 cell line (AID 743079); note: % is set by controls: 0 for no effect and ±100 for the full control effect; nearly all actives have a fitted effect of over 20% in size
- test settings: BG1Luc4E2 cells, ERE-luciferase agonist, 22 h; at 70.3 µM (top of the series)
Records with an inconclusive call do not appear.
measured metric: activation (%)
Provide the reading as a plain figure in %.

The following molecules have reported results that may help.
CCCC[N+](=O)[O-] | 8.37
CC[C@H](N)c1ccccc1 | 0.171
COc1ccccc1OC | 21.9

Please look at the following molecule next.
The molecule identified as O=C1CC(=O)NC(=O)N1 registered its activation at -4.6

---

- assay system: Thyrotropin-releasing hormone receptor (Homo sapiens)
- assay text: qHTS assay to identify small molecule agonists of the thyrotropin-releasing hormone receptor (TRHR) signaling pathway (AID 1346891);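 note: HEK293 cells expressing TRHR with calcium dye readout; % is set by controls: 0 for no effect and ±100 for the full control effect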
- test settings: TRHR-HEK293 calcium fluorescence, agonist mode; series mostly up to 57.6 µM
Activity calls are given as the source filed them. Calls come from the whole dose curve.
measured metric: activation

The following compounds have reported results that may help.
CC1NCCOC1c1ccccc1 (stereo unspecified) | inactive
Cc1cc(OC(=O)N(C)C)nn1C(=O)N(C)C | inactive
CCSC(=O)Cl | inactive
CCN(CC)CCOC(=O)C(O)(c1ccccc1)c1ccccc1 | inactive
O=C(CCl)NCO | inactive

Please look at the following compound next.
The compound identified as C=CCCC#N registered its activation at inactive

---

- assay text: qHTS assay to test for compound auto fluorescence at 535 nm (green) in HEK293 cell free culture (AID 720682); note: % is set by controls: 0 for no effect and ±100 for the full control effect
- test settings: cell-free medium, green autofluorescence 485/535 nm, hits give high values; series mostly up to 91.3 µM
Active and inactive are the calls of the source. Calls come from the whole dose curve; as a rule, active = well fitted curve in the direction sought with a large enough effect in the repeat runs; inconclusive = weak or mixed curves; inactive = flat fitted curve, though single readings scatter.
measured metric: activity change

CN1C(=O)COc2c(C(=O)NC3CN4CCC3CC4)cc(Cl)cc21 (centres undefined) | inactive
BrCc1ccc(Br)cc1 | inactive
N=C(N)[Se] | inactive
Cc1cccc2sc3nncn3c12 | inactive
CCC(C(N)=O)N1CCCC1=O (centres undefined) | inactive

The molecule identified as OCC(Cl)CCl (centres undefined) registered its activity change at inactive

The molecule identified as CC(C)(C)NC[C@H](O)c1ccc(O)cc1Cl registered its activity change at inactive

The molecule identified as O=C1C2CC=CCC2C(=O)N1SC(Cl)(Cl)Cl (centres undefined) registered its activity change at inactive

The molecule identified as C=CCCC#N registered its activity change at inactive

---

- assay system: Nuclear receptor subfamily 1 group I member 2 (Rattus norvegicus) (UniProt Q9R1A7)
- Sequence (Q9R1A7 whole entry, looked up): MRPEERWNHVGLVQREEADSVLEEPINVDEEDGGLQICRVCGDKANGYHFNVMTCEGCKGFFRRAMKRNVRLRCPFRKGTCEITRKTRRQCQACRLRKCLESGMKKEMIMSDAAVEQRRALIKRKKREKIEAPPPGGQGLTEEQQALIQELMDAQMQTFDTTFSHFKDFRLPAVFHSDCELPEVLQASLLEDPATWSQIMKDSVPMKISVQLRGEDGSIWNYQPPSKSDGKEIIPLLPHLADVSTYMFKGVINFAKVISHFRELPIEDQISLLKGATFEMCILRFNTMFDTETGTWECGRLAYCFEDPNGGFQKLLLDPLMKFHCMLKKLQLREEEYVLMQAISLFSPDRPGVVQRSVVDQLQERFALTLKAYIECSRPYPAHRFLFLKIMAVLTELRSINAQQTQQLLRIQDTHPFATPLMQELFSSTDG
- assay text: Rat pregnane X receptor (rPXR) activation by small molecules, qHTS assay (AID 1346983); note: % is set by controls: 0 for no effect and ±100 for the full control effect; nearly all actives have a fitted effect of over 20% in size
- test settings: rPXR luciferase reporter cells, One-Glo luminescence, 24 h; hits give high values
Results filed as inconclusive are left out.
Listed next: entries and their corresponding max activation.
Provide the reading as a plain figure in %.

The following compounds have reported results that may help.
COc1cccc([C@@]2(O)CCCC[C@@H]2CN(C)C)c1 | -2.97
CC1NCCOC1c1ccccc1 (centres undefined) | -1.57

The compound identified as CC[C@@H](CO)NC(=O)[C@@H]1C=C2c3cccc4c3c(cn4C)C[C@H]2N(C)C1 registered its max activation at 4.36

The compound identified as Cc1ccc(S(=O)(=O)N[C@@H](CCCCN)C(=O)CCl)cc1 registered its max activation at -2.32

The compound identified as ClCC1CO1 (centres undefined) registered its max activation at -3.74

The compound identified as C[C@]12C=CC(=O)C=C1CC[C@@H]1[C@@H]2CC[C@@]2(C)[C@H]1CC[C@]2(C)O registered its max activation at -4.23

The compound identified as CCC1(c2cccc(O)c2)CCCCN(C)C1 (centres undefined) registered its max activation at -1.16

The compound identified as C=C(C)[C@H]1CN[C@H](C(=O)O)[C@H]1CC(=O)O registered its max activation at -1.12

The compound identified as CCCN1CCC[C@@H]2Cc3nc(N)ncc3C[C@H]21 registered its max activation at -1.3

The compound identified as CC1=C2[C@H]3OC(=O)[C@@H](C)[C@@H]3CC[C@@]2(C)C=CC1=O registered its max activation at 8.61

The compound identified as CC(C)(N)Cc1ccc(Cl)cc1 registered its max activation at -1.44

The compound identified as CNC(=O)NC(O)C(Cl)(Cl)Cl (centres undefined) registered its max activation at -4.06

The compound identified as S=C=S registered its max activation at 3.06

The compound identified as Cc1ccc2c(c1)C1CN(C)CCC1N2 (centres undefined) registered its max activation at 1.15

The compound identified as ClC(Cl)(Cl)Cl registered its max activation at -2.8

Value source: PubChem BioAssay (Tox21)
